- run description: Multi-component pharmacokinetics in rat plasma after oral administration of RB, RPA or RB-RPA extracts (UPLC-HRMS, non-compartmental analysis)
- Assay type: in vivo, Sprague-Dawley rats
- recorded conditions: rat plasma, oral RB-RPA mixed extracts (45 g-herb/kg RB + 45 g-herb/kg RPA), mean ± SD, n = 7

molecule	AUC0-∞ / ng·h/mL
C[C@H]1O[C@@H](O[C@H]2CC[C@@]3(C)[C@@H](CC[C@]4(C)[C@@H]3C=C[C@]35OC[C@@]6(CCC(C)(C)C[C@H]63)[C@@H](O)C[C@]54C)[C@]2(C)CO)[C@H](O)[C@@H](O)[C@H]1O [Prosaikogenin F]	77.58
C[C@H]1O[C@@H](O[C@H]2CC[C@@]3(C)[C@@H](CC[C@]4(C)[C@@H]3C=C[C@]35OC[C@@]6(CCC(C)(C)C[C@H]63)[C@H](O)C[C@]54C)[C@]2(C)CO)[C@H](O)[C@@H](O[C@@H]2O[C@H](CO)[C@@H](O)[C@H](O)[C@H]2O)[C@H]1O [Saikosaponin D]	103.56
CC(=O)OC[C@H]1O[C@@H](O[C@H]2[C@@H](O)[C@@H](C)O[C@@H](O[C@H]3CC[C@@]4(C)[C@@H](CC[C@]5(C)[C@@H]4C=CC46OCC7(CCC(C)(C)C[C@H]74)[C@H](O)C[C@]65C)[C@]3(C)CO)[C@@H]2O)[C@H](O)[C@@H](O)[C@@H]1O (some centres unmarked) [Acetyl-saikosaponin D]	43.25
CC1(C)CC[C@]23CO[C@@]4(C=C[C@@H]5[C@@]6(C)CC[C@H](O)[C@@](C)(CO)[C@@H]6CC[C@@]5(C)[C@]4(C)C[C@@H]2O)[C@@H]3C1 [Saikogenin F]	347.02
C[C@@H]1O[C@@H](O[C@@H]2[C@H](O)[C@@H](O)[C@H](O[C@H]3CC[C@@]4(C)C(CC[C@]5(C)C4C=C[C@]46OC[C@@]7(CCC(C)(C)CC74)[C@@H](O)C[C@]65C)C3(C)C)O[C@@H]2CO[C@@H]2O[C@H](CO)[C@@H](O)[C@H](O)[C@H]2O)[C@H](O)[C@H](O)[C@H]1O (some centres unmarked) [Saikosaponin C]	53.67
CC1(C)CC[C@@]2(CO)C(=C3C=C[C@@H]4[C@@]5(C)CC[C@H](O)[C@@](C)(CO)[C@@H]5CC[C@@]4(C)[C@]3(C)C[C@H]2O)C1 [Saikogenin D]	141.32
CC1(C)CC[C@]23CO[C@@]4(C=C[C@@H]5[C@@]6(C)CC[C@H](O)[C@@](C)(CO)[C@@H]6CC[C@@]5(C)[C@]4(C)C[C@H]2O)[C@@H]3C1 [Saikogenin G]	99.59
CC(=O)OC[C@H]1O[C@@H](O[C@H]2[C@@H](O)[C@@H](C)O[C@@H](O[C@H]3CC[C@@]4(C)[C@@H](CC[C@]5(C)[C@@H]4C=CC46OCC7(CCC(C)(C)C[C@H]74)[C@@H](O)C[C@]65C)[C@]3(C)CO)[C@@H]2O)[C@H](O)[C@@H](O)[C@@H]1O (some centres unmarked) [Acetyl-saikosaponin A]	67.17

Recorded values, source paper PMC7982521.
